// reported Cu^2+/+ E1/2 for each item listed
# EXPERIMENT NOTES: Electrochemical Cu2+/Cu+ reduction potentials of copper-bound CG complexes
# Format: physicochemical
# CONDITION SET: PBS buffer, pH 7.4

MOLECULE | UNIT DESCRIPTOR | Cu^2+/+ E1/2
O=C([O-])CN1CCN(CC(=O)[O-])CCN(Cc2cccc(CN3CCSCCSCCSCC3)n2)CCN(CC(=O)[O-])CC1.[Gd+3] [CG3] | V vs. SHE | 0.58
CCSCCN(C)Cc1cccc(CN2CCN(CC(=O)[O-])CCN(CC(=O)[O-])CCN(CC(=O)[O-])CC2)n1.[Gd+3] [CG5] | V vs. SHE | 0.34
CCSCCN(Cc1ccccc1)Cc1cccc(CN2CCN(CC(=O)[O-])CCN(CC(=O)[O-])CCN(CC(=O)[O-])CC2)n1.[Gd+3] [CG4] | V vs. SHE | 0.40
CCSCCN(CCSCC)Cc1cccc(CN2CCN(CC(=O)[O-])CCN(CC(=O)[O-])CCN(CC(=O)[O-])CC2)n1.[Gd+3] [CG2] | V vs. SHE | 0.46

----------
# EXPERIMENT NOTES: Nuclear magnetic relaxation dispersion (NMRD) profiles, Solomon-Bloembergen-Morgan fit
# Format: physicochemical
# CONDITION SET: copper free; best-fit value
ASSAY METRIC: a (distance of closest approach of outer-sphere water protons) (Å)

SMI | ASSAY RESULT
CCSCCN(C)Cc1cccc(CN2CCN(CC(=O)[O-])CCN(CC(=O)[O-])CCN(CC(=O)[O-])CC2)n1.[Gd+3] | 4.8
CCSCCN(CC(=O)[O-])Cc1cccc(CN2CCN(CC(=O)[O-])CCN(CC(=O)[O-])CCN(CC(=O)[O-])CC2)n1.[Gd+3] | 4.2
O=C([O-])CN1CCN(CC(=O)[O-])CCN(Cc2cccc(CN3CCSCCSCCSCC3)n2)CCN(CC(=O)[O-])CC1.[Gd+3] | 4.7
CCSCCN(CCSCC)Cc1cccc(CN2CCN(CC(=O)[O-])CCN(CC(=O)[O-])CCN(CC(=O)[O-])CC2)n1.[Gd+3] | 4.7
CCSCCN(Cc1ccccc1)Cc1cccc(CN2CCN(CC(=O)[O-])CCN(CC(=O)[O-])CCN(CC(=O)[O-])CC2)n1.[Gd+3] | 4.2

----------
# EXPERIMENT NOTES: Longitudinal relaxivity (r1) from T1 measurements at 60 MHz, absence of copper
# Type: physicochemical
# CONDITION SET: no copper; 60 MHz, 20 mM HEPES buffer, pH 7, 37° C., 0.2 mM Gd^3+
# Description: The longitudinal relaxivity values for the CG contrast agents in the absence or presence of copper ions were determined using T1 measurements at 60 MHz. Studies were performed at 37° C. in 20 mM HEPES buffered to pH 7, and solutions of the purified CG sensors for relaxivity experiments contained 0.2 mM Gd^3+ as determined by ICP-OES. Spectroscopic data are collected in Table 1. Nuclear magnetic relaxation dispersion (NMRD) experiments provide supporting evidence for this proposal (vide infra).
// reported r1 (no Cu) for each item listed

SMI | r1 (no Cu) (mM⁻¹ s⁻¹)
CCSCCN(Cc1ccccc1)Cc1cccc(CN2CCN(CC(=O)[O-])CCN(CC(=O)[O-])CCN(CC(=O)[O-])CC2)n1.[Gd+3] | 1.7
CCSCCN(CCSCC)Cc1cccc(CN2CCN(CC(=O)[O-])CCN(CC(=O)[O-])CCN(CC(=O)[O-])CC2)n1.[Gd+3] | 1.5
CCSCCN(C)Cc1cccc(CN2CCN(CC(=O)[O-])CCN(CC(=O)[O-])CCN(CC(=O)[O-])CC2)n1.[Gd+3] | 1.2
O=C([O-])CN1CCN(CC(=O)[O-])CCN(Cc2cccc(CN3CCSCCSCCSCC3)n2)CCN(CC(=O)[O-])CC1.[Gd+3] | 1.5
CCSCCN(CC(=O)[O-])Cc1cccc(CN2CCN(CC(=O)[O-])CCN(CC(=O)[O-])CCN(CC(=O)[O-])CC2)n1.[Gd+3] | 2.2
